# Test system: CCRF-CEM leukemia
# experimental_details: NCI tumour cell line growth inhibition, 48 h
readout: GI50

Q) Provide only the value of recorded GI50 for "CC1=C2C(=CO[C@H](C)[C@H]2C)C(=O)C(C(=O)O)=C1O"
A) 27.7 µM

* * *

Quick reference for TGI among some molecules
# System: SW-620 colon
# experimental_details: NCI tumour cell line growth inhibition, 48 h
Your answer should be a plain number; it is taken to be in µM.

Study these solved cases before continuing.
1. Cc1cc(O)c(C2=NN(c3ccc(S(N)(=O)=O)cc3)C(c3ccc(Cl)cc3)C2)c(C)c1Cl (stereo unspecified) | 15.2
2. c1ccc2c(-c3nc(-c4c[nH]c5ccncc45)cs3)c[nH]c2c1 | 3.54
3. Cc1c2cc(Cl)c3ccccc3c2c[n+]2ccccc12 | 24.2
4. O=C1c2c(O)cccc2-c2nn(CCNCCO)c3ccc(NCCNCCO)c1c23 | 7.09

Q) Supply measured TGI of "COc1ccc2cc(CNCCCCCCNCc3ccc4cc(OC)ccc4c3)ccc2c1" in your reply.
A) 0.351

* * *

# System: SNB-75 CNS
# experimental_details: NCI tumour cell line growth inhibition, 48 h
The following compounds are listed with their measured TGI values.

1) Cc1nc2c(n1C)C(=O)c1ccccc1C2=O | > 100 µM

Q) Query TGI for "CCN(c1cc(-c2ccc(CN3CCOCC3)cc2)cc(C(=O)NCc2c(C)cc(C)[nH]c2=O)c1C)C1CCOCC1"
A) > 91.9 µM

Q) Supply measured TGI of "Nc1nc(Cl)cc(NC23CC4CC(CC(C4)C2)C3)n1" in your reply.
A) 90.8 µM

Q) Input "CN1CCc2c1nc(-c1ccc(Cl)cc1)c1c2N(C)CC1" , output reported TGI.
A) 67.7 µM

Q) Note down TGI recorded for COc1ccc(C(SC2C(O)C(CO)OC2n2ccc(=O)[nH]c2=O)(c2ccccc2)c2ccc(OC)cc2)cc1 (stereo unspecified)
A) 48.9 µM

Q) State its TGI for this compound: "C/C(=N\Nc1nc2ccccc2n1C)c1cc2ccccc2cn1"
A) 11.8 µM

* * *

TGI overview
# Test system: ACHN renal
# experimental_details: NCI tumour cell line growth inhibition, 48 h
Just the number in µM, nothing appended.

1) C=CCOn1c(C=C)nc2ccc(C)cc21 | 59.6
2) CN(C)CCCNc1ccc2nnn3c4ccc(O)cc4c(=O)c1c23 | 13.5

Q) Report TGI, nothing else, for this compound: "COc1ccc(-c2nc(-c3nc4ccc(F)cc4[nH]3)c3ccccn23)cc1"
A) 25.9

Q) Look up and state reported TGI for "C#CCn1c(=O)c(C)cn(/C(=C\C(=O)OCC)C(=O)OCC)c1=O"
A) 3.22

* * *

# Test system: HOP-92 NSCLC
# experimental_details: NCI tumour cell line growth inhibition, 48 h
readout: GI50

The following molecules have reported results that may help.
1. Cc1nc(Nc2ccccn2)sc1C(=O)/C=C/c1ccc(Cl)cc1 | 1.21 µM
2. CC(C)(C)OC(=O)NCCCn1c2c(c3ccccc3c1=O)C(=O)c1ccccc1-2 | 12.5 µM
3. Cc1ccc(S(=O)(=O)c2nc(-c3ccccc3)oc2S(C)=O)cc1 (stereo not given) | 1.38 µM

Q) Input "Cc1nc(Nc2cccnc2)sc1C(=O)/C=C/c1ccc(Cl)cc1" , output reported GI50.
A) 3.23 µM

Q) Look up GI50 of "N.N.N.N.N.O=[N+]([O-])[O-].[Co+3].[O-][Cl+3]([O-])([O-])[O-]" and report it.
A) > 100 µM

* * *

# Test system: EKVX NSCLC
# experimental_details: NCI tumour cell line growth inhibition, 48 h
Measured TGI of individual entries

Example compounds with recorded TGI:
1. Cn1c(-c2ccc(/C=N/NC(=S)N/N=C/c3ccc(-c4c[n+]5ccsc5n4C)cc3)cc2)c[n+]2ccsc12 | > 100 µM
2. CCCSc1ccc2[nH]c(N3C(=O)/C(=C/c4ccccc4)N=C3c3ccccc3)cc2c1 | > 50 µM
3. CCOC(=O)N1CCc2cc(OC)c(OC)cc2/C1=C\c1ccc(OC)c(OC)c1 | 89.2 µM
4. O=C1CC(=O)n2cnc3cccc(c32)N1 | > 100 µM
5. COc1ccc(Nc2ccc3ccccc3c2-c2c(O)ccc3ccccc23)cc1 | 31.8 µM
6. O=[N+]([O-])c1cccc(N=Nc2c(O)c(S(=O)(=O)O)cc3cc(S(=O)(=O)O)ccc23)c1 | > 100 µM
7. COc1cc2cc(C(=O)N3CC(COS(C)(=O)=O)c4ccc(O)cc43)[nH]c2c(OC)c1OC (configuration not stated) | 0.00645 µM
8. Cc1ccccc1N=C(N)Nc1ccccc1C | > 100 µM

Q) Provide TGI value for the following compound: "Cc1c2cc(Cl)c3ccccc3c2c[n+]2ccccc12"
A) > 100 µM

Q) Let me know recorded TGI for "S=c1nc(N/N=C/c2ccco2)c2cn[nH]c2[nH]1" , thanks.
A) > 100 µM

* * *

# Lookup of reported TGI keyed by entry
# Test system: ACHN renal
# experimental_details: NCI tumour cell line growth inhibition, 48 h
Where a SMILES comes first, the peptide text is derived from it. [ ]: non-standard residue; d: D form. The star is where a group is joined. Bn2Val = CC(C)[C@@H](C(=O)*)N(Cc1ccccc1)Cc1ccccc1; NH(4-Cl-benzyl) = Clc1ccc(CN*)cc1; NMeV = CN[C@H](C(=O)O)C(C)C; dNMeA = CN[C@H](C)C(=O)O

Known results for compounds:
1) CC(C)[C@H](NC(=O)[C@H](C(C)C)N(Cc1ccccc1)Cc1ccccc1)C(=O)N(C)[C@H](C(=O)N1CCC[C@H]1C(=O)N(C)[C@H](C)C(=O)NCc1ccc(Cl)cc1)C(C)C (Bn2Val-V[NMeV]P[dNMeA]-{NH(4-Cl-benzyl)}) | 10.1 µM
2) C1CC[N-]CC1.CC(=N\O)/C(C)=N/O.CC(=N\O)/C(C)=N/O.OC1[CH-]CCCC1.[Co+2] | > 100 µM
3) NCc1cccc(O)c1O | > 100 µM
4) O=S(=O)(NCn1ccc2ccccc21)c1ccccc1 | > 100 µM

Q) State TGI (ACHN renal) of "Cc1nc(N)c(N2CCN(CN)CC2)c(=O)[nH]1" .
A) > 100 µM

Q) // fetch TGI for CC(C)CCCC(C)[C@H]1CCC2[C@@H]3CCC4Nc5c(cnn5-c5ccccc5)C[C@]4(C)C3CC[C@@]21C (some centres not stated) ; system: ACHN renal
A) > 100 µM

Q) Tell me its TGI on ACHN renal: "C=C=C(CC(CC(=C)Br)(C(=O)OC)C(=O)OC)S(=O)(=O)c1ccccc1"
A) 6.83 µM

* * *

Entries and their measured TGI follow.
# Test system: NCI-H23 lung
# experimental_details: NCI tumour cell line growth inhibition, 48 h
Number in µM, nothing else.

Some solved entries appear below for comparison.
1. C=CCC1C(O[Si](C)(C)C(C)(C)C)C(CO[Si](C)(C)C(C)(C)C)OC1n1ccc(=O)[nH]c1=O (stereo not given) | 2.8
2. CC(=O)NC1C(OCc2ccccc2)OC(CO)C(O)C1OC(C)C(=O)NC(C(=O)NC(CCC(=O)NCCCCNc1c2ccccc2nc2cccc([N+](=O)[O-])c12)C(N)=O)C(C)C (stereo not given) | 4.75
3. Cc1ccc(S(=O)(=O)c2nc(-c3ccccc3)oc2S(C)=O)cc1 (stereo not given) | 3.97

Q) Please look at this compound and report its TGI: "c1ccc(-c2nc(N3CCOCC3)c3c4c(sc3n2)CCCCCC4)nc1"
A) 26.5

* * *

# Test system: RXF 393 renal
# experimental_details: NCI tumour cell line growth inhibition, 48 h; in the data active = GI50 below about 0.43 µM; inactive = the rest
Valid outcomes are listed here; reply with one: active, inactive

1) Cc1nc2ccc(NC(=O)CCNC(=O)CCCc3ccc(CC(C(=O)O)C(=O)O)cc3)cc2s1 | inactive
2) O=C(NCCc1ccccn1)OCc1nc2nc(Cl)nc(N3CCOCC3)c2[nH]1 | inactive
3) Cn1cc(-c2ccc3nnc(Sc4ccc5ncccc5c4)n3n2)cn1 | inactive
4) C1CC[N-]CC1.CC(=N\O)/C(C)=N/O.CC(=N\O)/C(C)=N/O.OC1[CH-]CCCC1.[Co+2] | inactive
5) S=c1nc(N/N=C/c2ccco2)c2cn[nH]c2[nH]1 | inactive

Q) Short answer needed: outcome of this test for "C=CC(=O)Nc1cc(N2CCN(CC)CC2)ccc1Nc1cc(N(C)C(=O)Nc2c(Cl)c(OC)cc(OC)c2Cl)ncn1" ?
A) inactive

Q) Called result for "CC1=C2C(=CO[C@H](C)[C@H]2C)C(=O)C(C(=O)O)=C1O"
A) inactive

Q) In this assay, the call recorded for "OCc1ccc(-c2cscc2-c2ccc(CO)o2)o1" was what?
A) inactive

Q) How was COc1ccc(C(O)c2cc3c(N)c(C(=O)Nc4cccc(Cl)c4)sc3nc2C)cc1 (stereo not drawn) classified in this test?
A) active

Q) Kindly provide the recorded test outcome for the following compound: "O=C(Oc1ccc(CO[N+](=O)[O-])cc1)c1ccccc1"
A) active

Q) GET /call?item= Cc1cc(O)c(C2=NN(c3ccc(S(N)(=O)=O)cc3)C(c3ccc(Cl)cc3)C2)c(C)c1Cl (stereo not drawn) returns the recorded outcome of this test.
A) inactive

Q) Outcome? "O=C(Nc1ccc(-c2nc(-c3cccc(OCCN4CCOCC4)c3)c(-c3ccnc(Br)c3)[nH]2)cc1)c1ccccc1"
A) active

Q) Recorded call for "CCCCCC[C@H](C)Nc1nc2ccccc2c2occc12" ?
A) inactive

# credit: PubChem BioAssay (NCI)
